system.tested: T1, human Claudin18.2 (CLDN18.2) (human, UniProt P56856 1-261)
T1 construct: the cell line is named under assay; also called human Claudine18.2; hClaudin18.2
experimental.details: FACS on CHOK1-18.2 cells
Examples of binders with documented pEC50 follow.
pEC50 is a log-scale quantity: -log10 of the concentration expressed in molar.

Entry under test: chAb29 (antibody, V domains shown) VH: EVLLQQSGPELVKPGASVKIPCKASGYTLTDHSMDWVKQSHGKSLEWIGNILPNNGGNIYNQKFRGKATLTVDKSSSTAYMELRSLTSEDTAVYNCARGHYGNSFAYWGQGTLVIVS VL: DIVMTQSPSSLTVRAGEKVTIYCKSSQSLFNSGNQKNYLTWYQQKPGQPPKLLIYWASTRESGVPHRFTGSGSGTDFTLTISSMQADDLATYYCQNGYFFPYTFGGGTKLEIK . Its pEC50 was 8.18

New cases:
Entry under test: chAb30 (antibody, V domains shown) VH: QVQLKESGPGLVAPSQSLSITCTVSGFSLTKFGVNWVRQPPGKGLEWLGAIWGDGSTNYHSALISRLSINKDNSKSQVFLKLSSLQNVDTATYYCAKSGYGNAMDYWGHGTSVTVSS VL: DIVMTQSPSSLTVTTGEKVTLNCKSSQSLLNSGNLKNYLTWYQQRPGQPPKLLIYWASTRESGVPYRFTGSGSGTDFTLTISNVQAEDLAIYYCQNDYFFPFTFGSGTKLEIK . Its pEC50 was 8.01

Entry under test: chAb08 (antibody, V domains shown) VH: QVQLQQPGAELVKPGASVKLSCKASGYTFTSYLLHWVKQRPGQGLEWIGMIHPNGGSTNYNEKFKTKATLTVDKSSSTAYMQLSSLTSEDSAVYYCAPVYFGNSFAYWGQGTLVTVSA VL: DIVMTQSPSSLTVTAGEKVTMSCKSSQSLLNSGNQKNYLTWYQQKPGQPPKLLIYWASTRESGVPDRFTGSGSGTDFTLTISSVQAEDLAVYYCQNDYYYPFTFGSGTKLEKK . Its pEC50 was 8.44

Entry under test: chAb04 (antibody, V domains shown) VH: EVQLQQSGPELVKPGASVKMSCMASGYTFTDYNIHWVKRSHGSRLEWIGYISPISGGAGYNQKFMDKATLTVDKSSNTAYMELRSLTSEDSAVYYCTRGDYWGQGTTLTVSS VL: DIVMTQSPSSLAVTVGEKVTMSCKSSQSLLNSGNQKNYLTWYQQKPGQPPKLLIYWASTRKSGVPDRFTGSGSGTDFTLTISSVQAEDLGIYYCLNDYGFPLTFGAGSKLELK . Its pEC50 was 8.67
